Test system: NCI-H1975 EGFR L858R/T790M cells
PROTOCOL: Cell proliferation, NCI-H1975 EGFR L858R/T790M (CellTiter-Glo, 72 h);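 further: viable cells quantified by luciferase-based ATP luminescence, proliferation expressed relative to DMSO-treated wells (100%) after subtracting a parallel plate read at the time of dosing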
Assay type: cell-based
TEST_CONDITIONS: Homo sapiens, NCI-H1975, 72 h, NCI-H1975, 72 h proliferation; read-out: EGFR L858R and T790M mutation GI50
Where a name gives a salt, the structure may show the parent alone.
Rule for this label: yes means GI50 is less than 6 nM; no means GI50 is at least 6 nM.

1) C=CC(=O)Nc1cc(Nc2ncnc(Nc3ccccc3C3(O)CC3)n2)c(OC)cc1N(C)CCN(C)C    no
2) C=CC(=O)Nc1cc(Nc2ncnc(Nc3ccc(C)nc3C(C)(C)O)n2)c(OC)cc1N(C)CCN(C)C    no
3) C=CC(=O)Nc1cc(Nc2ncnc(Nc3ccccc3C(C)(C)O)n2)c(OC)cc1N1CCC[C@@H](N(C)C)C1    no
4) C=CC(=O)Nc1cc(Nc2ncnc(Nc3ccc4[nH]ccc4c3C(C)(C)O)n2)c(OC)cc1N(C)CCN(C)C    no
5) [2H]C([2H])([2H])N(CCN(C)c1cc(OC)c(Nc2ncnc(Nc3cc(F)c(F)cc3C(C)(C)O)n2)cc1NC(=O)C=C)C([2H])([2H])[2H]    yes
6) C=CC(=O)Nc1cc(Nc2ncnc(Nc3cc(Cl)c(F)cc3C(C)(C)O)n2)c(OC)cc1N(C)CCN1CCCC1    no
7) C=CC(=O)Nc1cc(Nc2ncnc(Nc3cc(F)c(F)cc3C(C)(C)O)n2)c(OC)cc1N1CCC[C@@H]1CN(C)C    yes
8) C=CC(=O)Nc1cc(Nc2ncnc(Nc3cc(Cl)c(F)cc3C(C)(C)O)n2)c(OC)cc1N1CCOC[C@@H]1CN(C)C    yes
9) C=CC(=O)Nc1cc(Nc2ncnc(Nc3cc(F)c(F)cc3C(C)(C)O)n2)c(OC)cc1N1CC[C@H]2CN(C)C[C@H]21    no
10) C=CC(=O)Nc1cc(Nc2ncnc(Nc3cc(F)c(F)cc3C(C)(C)O)n2)c(OC)cc1N1CCOC[C@@H]1CN(C)C    yes
11) C=CC(=O)Nc1cc(Nc2ncnc(Nc3cc(F)c(F)cc3C(C)(O)CC)n2)c(OC)cc1N1CCC[C@@H]1CN(C)C (some centres unmarked)    yes
12) C=CC(=O)Nc1cc(Nc2ncnc(Nc3cc(F)c(F)cc3C(C)(C)O)n2)c(OC)cc1N1CC[C@@H]2CN(C)C[C@@H]21    yes
13) C=CC(=O)Nc1cc(Nc2nccc(Nc3cc(Cl)c(F)cc3C(C)(C)O)n2)c(OC)cc1N1CC[C@@H](NC)C1 [Compound 80, TFA salt]    no
14) C=CC(=O)Nc1cc(Nc2ncnc(Nc3cccnc3C(C)(C)O)n2)c(OC)cc1N(C)CCN(C)C    no
15) C=CC(=O)Nc1cc(Nc2ncnc(Nc3cc(Cl)c(F)cc3C(C)(C)O)n2)c(OC)cc1N(C)C[C@H]1CCCN1C    yes
16) C=CC(=O)Nc1cc(Nc2ncnc(Nc3cc(Cl)c(Cl)cc3C(C)(C)O)n2)c(OC)cc1N(C)CCN(C)C    no
17) C=CC(=O)Nc1cc(Nc2nccc(Nc3cc(Cl)c(F)cc3C(C)(C)O)n2)c(OC)cc1N1C[C@@H]2CN(C)C[C@@H]21    yes
18) C=CC(=O)Nc1cc(Nc2ncnc(Nc3cc(Cl)c(F)cc3C(C)(C)O)n2)c(OC)cc1N1C[C@@H](F)[C@@H](N(C)C)C1    no
19) C=CC(=O)Nc1cc(Nc2ncnc(Nc3cc(Cl)c(F)cc3C(C)(O)CC)n2)c(OC)cc1N1CC[C@@H](N(C)C)C1 (single isomer, unassigned)    yes
20) C=CC(=O)Nc1cc(Nc2ncnc(Nc3cc(F)c(F)cc3C(C)(O)CC)n2)c(OC)cc1N1CCC[C@H]1CN(C)C (some centres unmarked)    no
21) C=CC(=O)Nc1cc(Nc2ncnc(Nc3cc(F)c(C4CC4)cc3C(C)(C)O)n2)c(OC)cc1N1CC[C@@H]2CN(C)C[C@@H]21    yes
22) C=CC(=O)Nc1cc(Nc2ncnc(Nc3cc(Cl)c(F)cc3C(C)(C)O)n2)c(OC)cc1N1CC[C@@H](NC)C1    yes
23) C=CC(=O)Nc1cc(Nc2ncnc(Nc3cc(Cl)c(F)cc3C(C)(C)O)n2)c(OC)cc1N1CC[C@H](N(C)C)C1    yes
24) C=CC(=O)Nc1cc(Nc2nccc(Nc3cc(Cl)c(F)cc3C(C)(O)CC)n2)c(OC)cc1N1CC[C@@H](N(C)C)C1 (single isomer, unassigned)    yes
25) C=CC(=O)Nc1cc(Nc2ncnc(Nc3cc(F)c(Cl)cc3C(C)(C)O)n2)c(OC)cc1N1CCC[C@@H]1CN(C)C    yes
26) C=CC(=O)Nc1cc(Nc2ncnc(Nc3ccc(F)c(F)c3C(C)(C)O)n2)c(OC)cc1N(C)CCN(C)C    no
